Test system: 898857-211-R-J1-PDC complex spheroids, growth % test/control;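 also: spheroids exposed to compound for seven days before readout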
Protocol Details: Anticancer human tumor 898857-211-R-J1-PDC patient-derived melanoma cell line growth inhibition [RAS]
Test Parameters: curve of first compound; second compound 0.00949 µM
pIC50: −log10 of the molar value.
Think of 8 as a floor: if pIC50 stands on it or above, it is yes; beneath it, no.

Q. Hi, just wondering whether CC(C)n1nc(-c2ccc3oc(N)nc3c2)c2c(N)ncnc21 + CCn1c(-c2cc(N3CCN(C)CC3)cnc2C(C)OC)c2c3cc(ccc31)-c1csc(n1)CC(NC(=O)C1CC1C)C(=O)N1CCCC(N1)C(=O)OCC(C)(C)C2 shows pIC50 of 8 or higher.
A. no

Q. Hi, just wondering whether C[C@@H](NC(=O)c1ncnc(N)c1Cl)c1ncc(C(=O)Nc2cc(C(F)(F)F)c(Cl)cn2)s1 + CCn1c(-c2cccnc2C(C)OC)c2c3cc(ccc31)N1CCOC(CC(NC(=O)C(C(C)C)N(C)C(=O)C3(F)CCN(C(=O)C#CC(C)(C)N(C)C)CC3)C(=O)N3CCCC(N3)C(=O)OCC(C)(C)C2)C1 shows pIC50 of 8 or higher.
A. no

Q. Hi, just wondering whether O=C(c1ccc(F)c(F)c1Nc1ccc(I)cc1F)N1CC(O)([C@@H]2CCCCN2)C1 + CCn1c(-c2cccnc2C(C)OC)c2c3cc(ccc31)N1CCOC(CC(NC(=O)C(C(C)C)N(C)C(=O)C3(F)CCN(C(=O)C#CC(C)(C)N(C)C)CC3)C(=O)N3CCCC(N3)C(=O)OCC(C)(C)C2)C1 shows pIC50 of 8 or higher.
A. yes

Q. Hi, just wondering whether Cc1nc(N2CCC3(CC2)COC(C)C3N)c(CO)nc1Sc1ccnc(N)c1Cl (stereo not drawn) + CCn1c(-c2cccnc2C(C)OC)c2c3cc(ccc31)N1CCOC(CC(NC(=O)C(C(C)C)N(C)C(=O)C3(F)CCN(C(=O)C#CC(C)(C)N(C)C)CC3)C(=O)N3CCCC(N3)C(=O)OCC(C)(C)C2)C1 shows pIC50 of 8 or higher.
A. no

Q. Hi, just wondering whether CC1(O)CCCC1n1c(=O)c(C(F)F)cc2cnc(NC3CCN(S(C)(=O)=O)CC3)nc21 (stereo not drawn) + CCn1c(-c2cc(N3CCN(C)CC3)cnc2C(C)OC)c2c3cc(ccc31)-c1csc(n1)CC(NC(=O)C1CC1C)C(=O)N1CCCC(N1)C(=O)OCC(C)(C)C2 shows pIC50 of 8 or higher.
A. no

Q. Hi, just wondering whether O=C(c1ccc(F)c(F)c1Nc1ccc(I)cc1F)N1CC(O)([C@@H]2CCCCN2)C1 + CCn1c(-c2cc(N3CCN(C)CC3)cnc2C(C)OC)c2c3cc(ccc31)-c1csc(n1)CC(NC(=O)C1CC1C)C(=O)N1CCCC(N1)C(=O)OCC(C)(C)C2 shows pIC50 of 8 or higher.
A. yes
